test system: Escherichia coli TOP10; test: shrunken log2 fold change of peptide-encoding DNA abundance (4.5 h post-induction vs induction); higher = less antimicrobial activity (less host growth inhibition); settings: time post-induction: 4.5 h; library: site-saturation at positions 5, 18, 19, 20
quantity.measured: shrunken log2 fold change
Reply: number alone, nothing else.

Worked examples, 6 sequences total:
>  <sequence.input>
RRIRNRPPRLPRPRPRPIGCPRP

>  <shrunken log2 fold change>
0.0526

$$$$
>  <sequence.input>
RRIRERPPRLPRPRPRPNWMPRP

>  <shrunken log2 fold change>
-0.24

$$$$
>  <sequence.input>
RRIRARPPRLPRPRPRPNSLPRP

>  <shrunken log2 fold change>
-0.207

$$$$
>  <sequence.input>
RRIRVRPPRLPRPRPRPIHSPRP

>  <shrunken log2 fold change>
-0.252

$$$$
>  <sequence.input>
RRIRSRPPRLPRPRPRPYFHPRP

>  <shrunken log2 fold change>
-0.853

$$$$
>  <sequence.input>
RRIRDRPPRLPRPRPRPNIDPRP

>  <shrunken log2 fold change>
0.068

$$$$

// query Which shrunken log2 fold change is listed for RRIRCRPPRLPRPRPRPFDRPRP ?
// result -0.115

// query What about this sequence? RRIRWRPPRLPRPRPRPWAQPRP
// result -0.381

###

Reported shrunken log2 fold change values follow for various sequences
system: Escherichia coli TOP10; test: shrunken log2 fold change of peptide-encoding DNA abundance (4.5 h post-induction vs induction); higher = less antimicrobial activity (less host growth inhibition); conditions: time post-induction: 4.5 h; library: site-saturation at positions 5, 18, 19, 20

Worked examples, 5 sequences total:
>  <sequence.input>
RRIRTRPPRLPRPRPRPCSAPRP

>  <observed>
-0.413

$$$$
>  <sequence.input>
RRIRFRPPRLPRPRPRPQSIPRP

>  <observed>
0.0159

$$$$
>  <sequence.input>
RRIRGRPPRLPRPRPRPEGAPRP

>  <observed>
1.49

$$$$
>  <sequence.input>
RRIRDRPPRLPRPRPRPCLPPRP

>  <observed>
-0.272

$$$$
>  <sequence.input>
RRIRCRPPRLPRPRPRPHCHPRP

>  <observed>
-0.475

$$$$

// query Which shrunken log2 fold change is listed for RRIRSRPPRLPRPRPRPLRLPRP ?
// result 0.54

// query What about this sequence? RRIRDRPPRLPRPRPRPTQVPRP
// result 0.0721

// query What about this sequence? RRIRMRPPRLPRPRPRPVHWPRP
// result 0.155

###

tested on: Escherichia coli TOP10; test: shrunken log2 fold change of peptide-encoding DNA abundance (4.5 h post-induction vs induction); higher = less antimicrobial activity (less host growth inhibition); details: time post-induction: 4.5 h; library: site-saturation at positions 5, 18, 19, 20;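 note: peptides expressed intracellularly from a pBAD plasmid library in pooled LB shake-flask culture, induced with 0.3% L-arabinose, DNA abundance read by NGS, three biological replicates, DESeq2 with apeglm shrinkage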
Response key: Fulfilled means shrunken log2 fold change >= -0.01; Not fulfilled means shrunken log2 fold change < -0.01.

// query Could you verify whether the entry RRIRMRPPRLPRPRPRPQVLPRP shows shrunken log2 fold change of no less than -0.01?
// result Fulfilled

// query What about this sequence? RRIRERPPRLPRPRPRPAYGPRP
// result Not fulfilled

// query What about this sequence? RRIRGRPPRLPRPRPRPNQAPRP
// result Not fulfilled

// query What about this sequence? RRIRKRPPRLPRPRPRPEQFPRP
// result Not fulfilled

// query What about this sequence? RRIRNRPPRLPRPRPRPYMPPRP
// result Not fulfilled

// query What about this sequence? RRIRCRPPRLPRPRPRPENYPRP
// result Not fulfilled

// query What about this sequence? RRIRTRPPRLPRPRPRPHAGPRP
// result Not fulfilled

// query What about this sequence? RRIRIRPPRLPRPRPRPLSVPRP
// result Not fulfilled

// query What about this sequence? RRIRTRPPRLPRPRPRPWLWPRP
// result Fulfilled
